# TARGET DESC: TNKS2 ARC4 (Homo sapiens, UniProt Q9H2K2)
# Construct: ankyrin repeat cluster 4 domain; FRET: 6xHis-mCerulean (CFP) fusion; DSF, NMR, crystal: MBP and His tag cleaved by TEV, residues 487-649 printed for crystal; E. coli BL21(DE3)
# Sequence (Q9H2K2 487-649): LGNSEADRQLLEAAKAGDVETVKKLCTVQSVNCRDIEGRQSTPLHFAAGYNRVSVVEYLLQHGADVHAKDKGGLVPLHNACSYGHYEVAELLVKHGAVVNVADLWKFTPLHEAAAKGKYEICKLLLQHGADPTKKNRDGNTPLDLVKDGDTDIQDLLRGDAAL
# Set-up: DSF thermal shift of TNKS2 ARC4, stabilization over DMSO control
# ASSAY SETUP: binder
READOUT LABEL: ΔTm ± SD (°C)
One number for each entry, in °C.

- O=C(C1=C(O)C(=O)N(Cc2ccccc2)C1c1ccc(O)cc1)c1ccc2c(c1)OCCO2 (centres unmarked) [compound 26]: 0.76
- COc1ccc(C(=O)C2=C(O)C(=O)N(CCCN3CCOCC3)C2c2ccccc2)cc1OC (centres unmarked) [compound 29, 29]: 0.14
- COc1cccc(C(=O)C2=C(O)C(=O)N(CCCN3CCOCC3)C2c2ccccc2)c1 (centres unmarked) [compound 32, 32]: 0.23
- CN(C)CCCN1C(=O)C(O)=C(C(=O)c2ccc3c(c2)OCCO3)C1c1cccc(O)c1 (centres unmarked) [compound 16]: 2.96
- O=C(C1=C(O)C(=O)N(CCc2ccccc2)C1c1ccc(O)cc1)c1ccc2c(c1)OCCO2 (centres unmarked) [compound 25]: 1.80

# batch size: 3; output ΔTm ± SD (°C) per entry
1. COc1cccc(C2C(C(=O)c3ccc4c(c3)OCCO4)=C(O)C(=O)N2CCCNC(=N)N)c1 (centres unmarked) [S4]
2. COc1ccc(C2C(C(=O)c3ccc4c(c3)OCCO4)=C(O)C(=O)N2CCCN2CCOCC2)cc1 (centres unmarked) [compound 6, 6]
3. CCCCOc1ccc(C2C(C(=O)c3ccc4c(c3)OCCO4)=C(O)C(=O)N2CCCN2CCOCC2)cc1 (centres unmarked) [compound 9, 9]

1.10
1.81
1.40
